test system: Mycobacterium tuberculosis; experiment: In vitro inhibitory concentration against Mycobacterium tuberculosis [H37Rv stain]; format: functional, organism-based
measured-metric: IC50

line_notation=C/C(=N/NC(=O)c1ccncc1)c1cccc(CN2CCN(C)CC2)c1O measured_metric=IC50 measured_value="> 17.2 µM"
line_notation=C/C(=N/NC(=O)c1ccncc1)c1cccc(CN2CCN(c3cc4c(cc3F)c(=O)c(C(=O)O)cn4C3CC3)CC2)c1O measured_metric=IC50 measured_value="> 10.4 µM"
line_notation=C/C(=N/NC(=O)c1ccncc1)c1cccc(CN2CCN(c3ccccn3)CC2)c1O measured_metric=IC50 measured_value="> 14.5 µM"
line_notation=C/C(=N/NC(=O)c1ccncc1)c1cccc(CN2CCN(c3ccc(F)cc3)CC2)c1O measured_metric=IC50 measured_value="> 14 µM"
line_notation=CCN(CC)Cc1cccc(/C(C)=N\NC(=O)c2ccncc2)c1O measured_metric=IC50 measured_value="> 18.4 µM"
line_notation=C/C(=N/NC(=O)c1ccncc1)c1cccc(CN(C)C)c1O measured_metric=IC50 measured_value="> 20 µM"

Data provenance: ChEMBL document CHEMBL1142849
